The values you see were collected from patent US20040072206A1.

Molecular target: B. subtilis RNAP (Bacillus subtilis, UniProt P37870+P37871)
Construct: endogenous in cells; host or cells: Bacillus subtilis strain PL37 (built from strain 168)
Sequence (P37871 whole entry): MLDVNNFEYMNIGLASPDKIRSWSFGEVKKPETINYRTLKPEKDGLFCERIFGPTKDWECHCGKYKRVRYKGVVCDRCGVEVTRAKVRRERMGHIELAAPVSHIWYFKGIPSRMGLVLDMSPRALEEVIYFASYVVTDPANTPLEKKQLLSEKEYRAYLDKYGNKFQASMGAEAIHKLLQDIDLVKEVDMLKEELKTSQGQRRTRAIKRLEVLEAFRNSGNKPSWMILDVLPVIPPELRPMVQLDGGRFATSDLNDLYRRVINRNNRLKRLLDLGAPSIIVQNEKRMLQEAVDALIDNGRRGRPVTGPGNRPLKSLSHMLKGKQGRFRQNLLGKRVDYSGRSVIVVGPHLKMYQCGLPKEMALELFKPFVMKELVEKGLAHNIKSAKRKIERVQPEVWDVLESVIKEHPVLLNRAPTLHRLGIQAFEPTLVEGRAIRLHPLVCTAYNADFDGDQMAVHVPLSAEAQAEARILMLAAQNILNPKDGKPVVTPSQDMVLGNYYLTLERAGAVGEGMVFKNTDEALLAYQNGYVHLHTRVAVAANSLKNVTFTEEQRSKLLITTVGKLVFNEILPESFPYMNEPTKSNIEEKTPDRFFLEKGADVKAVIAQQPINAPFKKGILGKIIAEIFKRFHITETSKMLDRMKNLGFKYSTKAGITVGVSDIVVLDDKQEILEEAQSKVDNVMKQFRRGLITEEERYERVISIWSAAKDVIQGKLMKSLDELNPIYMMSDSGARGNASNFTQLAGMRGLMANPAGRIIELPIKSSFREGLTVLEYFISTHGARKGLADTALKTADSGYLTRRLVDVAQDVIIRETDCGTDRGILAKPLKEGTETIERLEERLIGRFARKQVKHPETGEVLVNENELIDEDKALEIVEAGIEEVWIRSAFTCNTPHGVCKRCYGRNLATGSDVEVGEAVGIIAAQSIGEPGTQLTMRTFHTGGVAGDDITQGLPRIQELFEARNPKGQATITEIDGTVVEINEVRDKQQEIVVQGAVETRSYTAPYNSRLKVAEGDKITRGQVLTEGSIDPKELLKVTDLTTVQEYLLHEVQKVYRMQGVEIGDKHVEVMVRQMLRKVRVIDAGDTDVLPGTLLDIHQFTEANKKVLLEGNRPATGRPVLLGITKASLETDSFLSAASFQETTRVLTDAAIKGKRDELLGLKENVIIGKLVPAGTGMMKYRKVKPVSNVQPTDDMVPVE
Sequence (P20429 whole entry, further chain): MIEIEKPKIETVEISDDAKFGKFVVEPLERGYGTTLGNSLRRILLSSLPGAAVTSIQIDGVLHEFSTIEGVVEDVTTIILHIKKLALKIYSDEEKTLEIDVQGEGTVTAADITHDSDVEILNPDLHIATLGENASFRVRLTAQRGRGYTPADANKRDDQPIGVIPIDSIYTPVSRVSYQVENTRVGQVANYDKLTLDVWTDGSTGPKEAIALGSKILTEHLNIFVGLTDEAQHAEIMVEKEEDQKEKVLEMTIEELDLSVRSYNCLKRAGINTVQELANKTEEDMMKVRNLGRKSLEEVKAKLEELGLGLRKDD
Sequence (O35011 whole entry, further chain): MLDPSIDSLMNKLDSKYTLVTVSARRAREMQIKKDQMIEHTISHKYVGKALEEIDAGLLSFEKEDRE
Sequence (P37870 whole entry): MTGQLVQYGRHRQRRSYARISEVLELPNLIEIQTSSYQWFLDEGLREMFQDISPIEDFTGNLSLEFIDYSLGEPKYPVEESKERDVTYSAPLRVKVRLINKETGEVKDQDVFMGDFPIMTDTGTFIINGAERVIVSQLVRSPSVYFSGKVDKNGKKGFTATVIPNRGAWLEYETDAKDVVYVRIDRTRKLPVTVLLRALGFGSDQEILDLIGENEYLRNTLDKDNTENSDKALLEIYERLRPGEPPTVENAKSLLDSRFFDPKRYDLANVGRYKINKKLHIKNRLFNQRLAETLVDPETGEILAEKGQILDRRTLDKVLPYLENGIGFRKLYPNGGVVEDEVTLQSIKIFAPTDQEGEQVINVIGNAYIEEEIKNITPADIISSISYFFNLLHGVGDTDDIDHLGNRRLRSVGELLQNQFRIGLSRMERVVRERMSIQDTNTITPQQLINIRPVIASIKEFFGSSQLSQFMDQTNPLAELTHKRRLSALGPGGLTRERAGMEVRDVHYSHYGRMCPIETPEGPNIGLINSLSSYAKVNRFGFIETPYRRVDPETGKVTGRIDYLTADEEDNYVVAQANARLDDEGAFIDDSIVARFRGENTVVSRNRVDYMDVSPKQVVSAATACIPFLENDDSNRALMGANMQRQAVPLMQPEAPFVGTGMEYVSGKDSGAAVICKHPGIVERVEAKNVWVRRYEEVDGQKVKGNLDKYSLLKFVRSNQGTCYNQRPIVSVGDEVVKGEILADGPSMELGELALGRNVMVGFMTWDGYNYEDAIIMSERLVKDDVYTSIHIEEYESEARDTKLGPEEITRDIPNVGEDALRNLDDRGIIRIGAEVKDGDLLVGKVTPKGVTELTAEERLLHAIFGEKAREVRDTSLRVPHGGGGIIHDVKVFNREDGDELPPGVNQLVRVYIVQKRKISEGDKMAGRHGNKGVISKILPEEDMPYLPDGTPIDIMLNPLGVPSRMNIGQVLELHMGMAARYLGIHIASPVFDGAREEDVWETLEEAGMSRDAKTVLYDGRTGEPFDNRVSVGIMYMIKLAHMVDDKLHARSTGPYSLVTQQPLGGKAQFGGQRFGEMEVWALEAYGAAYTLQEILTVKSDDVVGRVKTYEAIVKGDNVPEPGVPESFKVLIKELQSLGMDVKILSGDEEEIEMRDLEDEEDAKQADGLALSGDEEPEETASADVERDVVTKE
Assay: Dual reporter assay in strain PL37: test reporter Pxyl-lacZ and ratio of control to test reporter (RES:MUG)
Format: cell-based
Settings: strain PL37; Dilution Number 10; DMSO control […]
measuredEndpoint: Ratio of the control reporter (RES): test reporter (MUG)

molecule	tgt	reportedResult
CCn1cc(C(=O)O)c(=O)c2cc3c(cc21)OCO3	B. subtilis RNAP (Bacillus subtilis, UniProt P37870+P37871)	1.14

Ask | # get_value(readout='Ratio of the control reporter (RES): test reporter (MUG)', item= CC[C@@]1([C@@H]2O[C@@H]([C@H]3O[C@@](O)(CO)[C@H](C)C[C@@H]3C)C[C@@H]2C)CC[C@H]([C@]2(C)CC[C@]3(C[C@H](O)[C@@H](C)[C@@H]([C@@H](C)[C@@H](OC)[C@H](C)C(=O)O)O3)O2)O1 )
Reply | 1.37

Ask | Tell me the measured Ratio of the control reporter (RES): test reporter (MUG) of CC(O)C(=O)O.COc1cc(Cc2cnc(N)nc2N)cc(OC)c1OC [Trimethoprim Lactate] , please.
Reply | 0.81

###

Target: B. subtilis RNAP (Bacillus subtilis, UniProt P37870+P37871)
Construct: endogenous in cells; host or cells: Bacillus subtilis strain PL37 (built from strain 168)
Test: Dual reporter assay in strain PL37: test reporter Pxyl-lacZ and ratio of control to test reporter (RES:MUG)
Type: cell-based
Conditions: strain PL37; Dilution Number 7; DMSO control […]
Items are presented alongside their recorded Ratio of the control reporter (RES): test reporter (MUG).
// no unit string in output, number only

molecule	reportedResult
O=C(N[C@H](CO)[C@H](O)c1ccc([N+](=O)[O-])cc1)C(Cl)Cl	1.20
CCn1cc(C(=O)O)c(=O)c2ccc(C)nc21	1.18
CC(O)C(=O)O.COc1cc(Cc2cnc(N)nc2N)cc(OC)c1OC [Trimethoprim Lactate]	0.68
CCn1cc(C(=O)O)c(=O)c2cc3c(cc21)OCO3	0.96
CC[C@@]1([C@@H]2O[C@@H]([C@H]3O[C@@](O)(CO)[C@H](C)C[C@@H]3C)C[C@@H]2C)CC[C@H]([C@]2(C)CC[C@]3(C[C@H](O)[C@@H](C)[C@@H]([C@@H](C)[C@@H](OC)[C@H](C)C(=O)O)O3)O2)O1	1.88
CNC(=O)[C@@H](C)[C@H]1C(=O)/C(=C(O)/C=C/C(C)=C/[C@@H](C)[C@H]2O[C@@]3(C)O[C@H](C=C[C@@]34CO4)[C@@H]2C)C(=O)N1[C@@H]1CC[C@H](O)[C@H](C)O1	1.74

Here is another molecule to look at.
Ask | Reported Ratio of the control reporter (RES): test reporter (MUG) for B. subtilis RNAP (Bacillus subtilis, UniProt P37870+P37871), given CC[C@H]1OC(=O)[C@H](C)[C@@H](O[C@H]2C[C@@](C)(OC)[C@@H](O)[C@H](C)O2)[C@H](C)[C@@H](O[C@@H]2O[C@H](C)C[C@H](N(C)C)[C@H]2O)[C@](C)(O)C[C@@H](C)C(=O)[C@H](C)[C@@H](O)[C@]1(C)O ?
Reply | 1.73

###

Target: B. subtilis RNAP (Bacillus subtilis, UniProt P37870+P37871)
Construct: endogenous in cells; host or cells: Bacillus subtilis strain PL37 (built from strain 168)
Test: Dual reporter assay in strain PL37: test reporter Pxyl-lacZ and ratio of control to test reporter (RES:MUG)
Format: cell-based
Conditions: strain PL37; Dilution Number 1 (highest concentration tested: 128, 16 or 0.5 μg/ml depending on antibiotic); DMSO control […]
Ratio of the control reporter (RES): test reporter (MUG) values, listed per item
Output: the number by itself.

Check out these entries, answers already filled in.
compound	tgt	reportedResult
O=C(N[C@H](CO)[C@H](O)c1ccc([N+](=O)[O-])cc1)C(Cl)Cl	B. subtilis RNAP (Bacillus subtilis, UniProt P37870+P37871)	1.10
CC1(C)S[C@@H]2[C@H](NC(=O)Cc3ccccc3)C(=O)N2[C@H]1C(=O)O	B. subtilis RNAP (Bacillus subtilis, UniProt P37870+P37871)	1.77
CN[C@@H]1[C@H](O)[C@H](NC)[C@H]2O[C@@]3(O)C(=O)C[C@@H](C)O[C@H]3O[C@@H]2[C@H]1O	B. subtilis RNAP (Bacillus subtilis, UniProt P37870+P37871)	1.30
CC1(C)S[C@@H]2[C@H](NC(=O)C(C(=O)O)c3ccccc3)C(=O)N2[C@H]1C(=O)O (stereo partly drawn)	B. subtilis RNAP (Bacillus subtilis, UniProt P37870+P37871)	1.37
CC[C@@]1([C@@H]2O[C@@H]([C@H]3O[C@@](O)(CO)[C@H](C)C[C@@H]3C)C[C@@H]2C)CC[C@H]([C@]2(C)CC[C@]3(C[C@H](O)[C@@H](C)[C@@H]([C@@H](C)[C@@H](OC)[C@H](C)C(=O)O)O3)O2)O1	B. subtilis RNAP (Bacillus subtilis, UniProt P37870+P37871)	1.74

Next:
Ask | Query: Ratio of the control reporter (RES): test reporter (MUG); subject: CC(O)C(=O)O.COc1cc(Cc2cnc(N)nc2N)cc(OC)c1OC [Trimethoprim Lactate]
Reply | 0.62

###

Biological target: B. subtilis RNAP (Bacillus subtilis, UniProt P37870+P37871)
Construct: endogenous in cells; host or cells: Bacillus subtilis strain PL37 (built from strain 168)
Assay: Dual reporter assay in strain PL37: test reporter Pxyl-lacZ and ratio of control to test reporter (RES:MUG)
Type: cell-based
Details: strain PL37; Dilution Number 5; DMSO control […]
Positions of bridges follow the written chain, without caps; N, C: chain ends. Non-standard residues stand in square brackets, D forms with d. Residues, ends and D or L forms follow the SMILES beside them. *: point of attachment. Ileψ(thiazoline)Cys = CC[C@H](C)[C@H](N)C1=N[C@H](C(=O)*)CS1; dOrn = NCCC[C@@H](N)C(=O)O
measuredEndpoint: Ratio of the control reporter (RES): test reporter (MUG)
Please reply with the number alone, leaving off any unit.

Previously resolved entries follow.
compound	reportedResult
CCn1cc(C(=O)O)c(=O)c2ccc(C)nc21 [Nalidixic Acid]	0.68
CCn1cc(C(=O)O)c(=O)c2cc3c(cc21)OCO3 [Oxolinic Acid]	2.02
CC1(C)S[C@@H]2[C@H](NC(=O)Cc3ccccc3)C(=O)N2[C@H]1C(=O)O [Penicillin G]	1.81
CNC(=O)[C@@H](C)[C@H]1C(=O)/C(=C(O)/C=C/C(C)=C/[C@@H](C)[C@H]2O[C@@]3(C)O[C@H](C=C[C@@]34CO4)[C@@H]2C)C(=O)N1[C@@H]1CC[C@H](O)[C@H](C)O1 [Streptolydigin]	4.88
CC(O)C(=O)O.COc1cc(Cc2cnc(N)nc2N)cc(OC)c1OC [Trimethoprim Lactate]	0.54
CC[C@H]1OC(=O)[C@H](C)[C@@H](O[C@H]2C[C@@](C)(OC)[C@@H](O)[C@H](C)O2)[C@H](C)[C@@H](O[C@@H]2O[C@H](C)C[C@H](N(C)C)[C@H]2O)[C@](C)(O)C[C@@H](C)C(=O)[C@H](C)[C@@H](O)[C@]1(C)O [Erythromycin]	1.58
CCC[C@@H]1C[C@@H](C(=O)N[C@@H]([C@H]2O[C@H](SC)[C@H](O)[C@@H](O)[C@H]2O)[C@@H](C)O)N(C)C1 [Lincomycin]	1.91
CN[C@@H]1[C@H](O)[C@H](NC)[C@H]2O[C@@]3(O)C(=O)C[C@@H](C)O[C@H]3O[C@@H]2[C@H]1O [Spectinomycin]	1.16
CO[C@@H]1[C@@H](OC(N)=O)[C@@H](O)[C@H](Oc2ccc3c(O)c(NC(=O)c4ccc(O)c(CC=C(C)C)c4)c(=O)oc3c2C)OC1(C)C [Novobiocin]	1.24
CC1=C(C(=O)O)N2C(=O)[C@@H](NC(=O)[C@H](N)c3ccccc3)[C@H]2SC1 [Cephalexin]	1.68

Ask | Value lookup for Ratio of the control reporter (RES): test reporter (MUG); key = CC[C@@]1([C@@H]2O[C@@H]([C@H]3O[C@@](O)(CO)[C@H](C)C[C@@H]3C)C[C@@H]2C)CC[C@H]([C@]2(C)CC[C@]3(C[C@H](O)[C@@H](C)[C@@H]([C@@H](C)[C@@H](OC)[C@H](C)C(=O)O)O3)O2)O1 [Monensin]
Reply | 2.06

Ask | Form field: reported Ratio of the control reporter (RES): test reporter (MUG) of CC1(C)S[C@@H]2[C@H](NC(=O)C(C(=O)O)c3ccccc3)C(=O)N2[C@H]1C(=O)O (some centres unmarked) [Carbenicillin]
Reply | 1.66

Ask | Which Ratio of the control reporter (RES): test reporter (MUG) value belongs to CC[C@H](C)[C@H](N)C1=N[C@H](C(=O)N[C@@H](CC(C)C)C(=O)N[C@H](CCC(=O)O)C(=O)N[C@H](C(=O)N[C@H]2CCCCNC(=O)[C@H](CC(N)=O)NC(=O)[C@@H](CC(=O)O)NC(=O)[C@H](Cc3cnc[nH]3)NC(=O)[C@@H](Cc3ccccc3)NC(=O)[C@H]([C@@H](C)CC)NC(=O)[C@@H](CCCN)NC2=O)[C@@H](C)CC)CS1 [Bacitracin] ({Ileψ(thiazoline)Cys}-L[dE]IK[dOrn]I[dF]H[dD]N; lactam 4-C) ?
Reply | 1.14

Ask | I'd like to know its Ratio of the control reporter (RES): test reporter (MUG). The compound in question is O=C(N[C@H](CO)[C@H](O)c1ccc([N+](=O)[O-])cc1)C(Cl)Cl [Chloramphenicol]
Reply | 1.90
